Here the recorded pIC50 is given for each entry.
Target: Avi-KRAS G12D (1-169) GppNHp/RAF1 RBD-3xFLAG (52-151) (Homo sapiens, UniProt P01116, G12D)
Construct: Avi-KRAS G12D (1-169)
Sequence (P01116 1-169 isoform P01116-2 G12D): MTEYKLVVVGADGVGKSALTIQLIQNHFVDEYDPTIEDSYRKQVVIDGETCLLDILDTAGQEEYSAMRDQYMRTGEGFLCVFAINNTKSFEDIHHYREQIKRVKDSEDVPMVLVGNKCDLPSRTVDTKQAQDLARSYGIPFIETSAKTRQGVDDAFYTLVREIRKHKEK
Test: Raf1-KRAS G12D-GppNHP disruption HTRF assay (Biological Example 1)
Format: binding
Conditions: KRAS G12D-GppNHp/RAF1 RBD HTRF
Description: A protein:protein interaction (PPI) Homogeneous Time Resolved Fluorescence (HTRF) assay was used to determine the effectiveness of compounds of the present disclosure in disrupting KRAS protein and effector RAF1 binding. The assay buffer included: 50 mM Tris pH 7.5, 100 mM NaCl, 5 mM MgCl2, 0.1% BSA, 0.01% Tween, and 10% DMSO. The bead buffer included: 50 mM Tris pH 7.5, and 0.01% Tween 20. […] Data was reported as percentage of activity, with DMSO as 100%. Data was plotted and analyzed using Prism 8.
pIC50: −log10 of the molar value.

Query: What measured pIC50 goes with "CC(=O)N1C[C@@H]2CC[C@H]1CN2c1nc(OC[C@@]23CCCN2C[C@H](F)C3)nc2c(F)c(-c3ccc(F)c4sc(N)c(C#N)c34)c(C(F)(F)F)cc12" ?
Response: 6.00 to 7.00

Query: Do the same for "N#Cc1c(N)sc2c(F)ccc(-c3c(C(F)(F)F)cc4c(N5CCc6oncc6C5)nc(OC[C@@]56CCCN5C[C@H](F)C6)nc4c3F)c12" please
Response: 6.00 to 7.00

Others:
Query: What measured pIC50 goes with "N#Cc1c(N)sc2c(F)ccc(-c3c(C(F)(F)F)cc4c(N5C6CCC5CS(=O)(=O)C6)nc(OC[C@@]56CCCN5C[C@H](F)C6)nc4c3F)c12" ?
Response: 6.00 to 7.00
